Measured EC50 (nM), HEK human IL-36R IL-8 luciferase reporter assay, 200 ng/ml hIL-36γ values are reported for all entries that follow.
# experimental target: T1, human IL-36R (on cells) (human, UniProt Q9HB29 20-575)
# T1 sequence (looked up): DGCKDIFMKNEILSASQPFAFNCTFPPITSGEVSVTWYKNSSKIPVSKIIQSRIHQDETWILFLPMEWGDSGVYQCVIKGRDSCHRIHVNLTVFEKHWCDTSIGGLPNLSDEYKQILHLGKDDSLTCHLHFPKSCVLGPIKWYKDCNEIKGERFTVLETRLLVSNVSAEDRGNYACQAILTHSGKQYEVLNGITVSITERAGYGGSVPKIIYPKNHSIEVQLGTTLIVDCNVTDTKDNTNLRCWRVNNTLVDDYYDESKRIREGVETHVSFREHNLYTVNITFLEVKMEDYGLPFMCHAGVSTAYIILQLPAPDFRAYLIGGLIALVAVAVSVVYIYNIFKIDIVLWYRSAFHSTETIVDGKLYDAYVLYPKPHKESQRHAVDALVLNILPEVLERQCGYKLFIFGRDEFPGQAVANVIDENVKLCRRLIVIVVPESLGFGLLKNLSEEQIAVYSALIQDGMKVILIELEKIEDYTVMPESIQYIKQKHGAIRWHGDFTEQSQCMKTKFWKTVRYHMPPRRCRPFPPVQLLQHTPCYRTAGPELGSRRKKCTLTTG
# protocol text: cell-based or functional assay
State the value with its unit after it.

Solved cases (2 shown):
binder	test result
Chimeric 5D3 (APE3849) (antibody, V domains shown) VH: QVQLQQSGPELVRPGASVRMSCKASDYTFTNYWMHWVKQRPGQGLEWIGMFDPSNSVTRLNQKFKDKATLNVDKSSNTAYIQFSSLTFEDSAVYYCARTTSMIIGGFAYWGQGTLVTVSS VL: DIVMTQAAFSNPVTLGTSASISCRSSKSLLHSNGITYFYWYLQRPGQSPQLLIYQMSNLASGVPDRFSGSGSGTDFTLRISRVEAEDVGIYYCAQNLELPLTFGAGTKLELK	3.1 nM
Humanized (HzD) 1D9 (APE5281) (antibody, V domains shown, also called 1D9 Humanized) VH: QVQLMQSGAEVKKPGASVKVSCKASGFTFTSYDINWVRQAPGQRLEWMGWIYPGDSSTKYNEKFKGRVTITADKSANTAYMELASLRSEDTAVYFCTRSFYTMDYWGQGTTVTVSS VL: DIVMTQSPLSLPVTPGEPASISCRSSKSLLHSNANTYLYWFLQKPGQSPQLLISRMSNLASGVPDRFSGSGSGTDFTLKISRVEAEDVGVYYCMQHLEYPFTFGQGTKLEIK	0.12 nM

Please look at the following binder next.
Q: Item Hzd 5D3 (APE6194) (antibody, V domains shown, also called 5D3 Humanized) VH: QVQLVQSGAEVKKPGASVKVSCKASGYTFTNYWMNWVRQAPRQGLEWMGMFHPYGDVTRLNQKFKDRVTMTRDTSTSTVYMELSSLRSEDTAVYYCARTTSMIIGGFAYWGQGTLVTVSS VL: DIVMTQTPLSLSVTPGQPASISCRSSKSLLHRNAITYFYWYLHKPGQPPQLLIYQMSNLASGVPDRFSGSGSGTDFTLKISRVEAEDVGVYYCAQNLELPLTFGGGTKVEIK : provide EC50 (nM), HEK human IL-36R IL-8 luciferase reporter assay, 200 ng/ml hIL-36γ
Result: 0.45 nM
